Where do the numbers come from? From ChEMBL document CHEMBL3739345.

# experimentalSystem: Peregrin (Homo sapiens) (UniProt P55201)
# Sequence (P55201 whole entry): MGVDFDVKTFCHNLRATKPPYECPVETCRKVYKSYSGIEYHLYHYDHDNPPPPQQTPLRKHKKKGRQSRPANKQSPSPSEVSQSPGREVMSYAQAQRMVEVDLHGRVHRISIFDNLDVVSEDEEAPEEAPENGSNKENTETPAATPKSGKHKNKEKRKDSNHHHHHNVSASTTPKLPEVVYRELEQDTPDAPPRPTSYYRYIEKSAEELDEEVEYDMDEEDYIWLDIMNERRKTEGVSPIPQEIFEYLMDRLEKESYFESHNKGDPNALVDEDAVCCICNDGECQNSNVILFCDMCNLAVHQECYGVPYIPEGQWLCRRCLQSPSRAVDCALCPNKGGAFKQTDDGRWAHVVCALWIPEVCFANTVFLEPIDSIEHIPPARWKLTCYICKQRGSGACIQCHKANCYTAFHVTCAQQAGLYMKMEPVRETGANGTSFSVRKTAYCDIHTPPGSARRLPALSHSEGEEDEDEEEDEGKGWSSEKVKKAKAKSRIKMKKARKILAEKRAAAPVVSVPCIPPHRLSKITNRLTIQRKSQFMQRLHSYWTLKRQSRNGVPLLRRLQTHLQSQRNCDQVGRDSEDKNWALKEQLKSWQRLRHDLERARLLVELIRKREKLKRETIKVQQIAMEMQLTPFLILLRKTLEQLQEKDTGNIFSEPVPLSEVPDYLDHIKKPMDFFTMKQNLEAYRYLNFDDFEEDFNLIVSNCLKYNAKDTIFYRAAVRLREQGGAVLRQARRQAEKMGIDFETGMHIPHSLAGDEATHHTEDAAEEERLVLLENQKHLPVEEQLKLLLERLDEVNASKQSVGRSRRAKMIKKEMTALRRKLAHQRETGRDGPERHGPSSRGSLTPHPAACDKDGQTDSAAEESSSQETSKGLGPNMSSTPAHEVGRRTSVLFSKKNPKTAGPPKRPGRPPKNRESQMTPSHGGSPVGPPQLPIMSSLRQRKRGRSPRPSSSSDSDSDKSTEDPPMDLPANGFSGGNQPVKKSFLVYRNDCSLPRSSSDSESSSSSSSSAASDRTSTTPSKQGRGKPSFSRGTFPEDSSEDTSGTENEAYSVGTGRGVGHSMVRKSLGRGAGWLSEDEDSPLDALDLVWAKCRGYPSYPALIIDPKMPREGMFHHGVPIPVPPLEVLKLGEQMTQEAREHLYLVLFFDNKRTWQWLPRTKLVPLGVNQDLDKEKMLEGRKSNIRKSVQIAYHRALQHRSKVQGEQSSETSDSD
# protocol: Binding affinity to human BRPF1B assessed as change in melting temperature at 10 uM by differential scanning fluorimetry
# ΔTm values compiled below
The figure you give is taken to be in °C; do not add the unit.

Answered examples (4):
INSERT INTO assay_data (compoundsmiles, experimentalsystem, assayvalue) VALUES
  ('CC(=O)c1cc(-c2cccc3nccn23)c2cc(N3CCOCC3)ccn12', 'Peregrin (Homo sapiens) (UniProt P55201)', 1.7),
  ('CC(=O)c1cc(-c2ccc(C(F)(F)F)cn2)c2cc(N3CCOCC3)ccn12', 'Peregrin (Homo sapiens) (UniProt P55201)', 2.5),
  ('CC(=O)c1cc(-c2cccc3nccn23)c2cc(N3CCNCC3)ccn12', 'Peregrin (Homo sapiens) (UniProt P55201)', 2.3),
  ('CC(=O)c1cc(-c2ccccn2)c2cc(N3CCNCC3)ccn12', 'Peregrin (Homo sapiens) (UniProt P55201)', 1.7);

Request: # lookup: ΔTm of `COC(=O)c1ccnc(-c2cc(C(C)=O)n3ccc(N4CCOCC4)cc23)c1`
Result: 0.04

Request: Would you mind doing `CC(=O)c1cc(-c2cccc3nccn23)c2cc(N3CCN(C)CC3)ccn12` as well?
Result: 3.5

Request: Would you mind doing `CC(=O)c1cc(-c2ncccc2F)c2cc(N3CCOCC3)ccn12` as well?
Result: 0.71

----------
# experimentalSystem: Bromodomain-containing protein 7 (Homo sapiens)
# Sequence (Q9NPI1 whole entry): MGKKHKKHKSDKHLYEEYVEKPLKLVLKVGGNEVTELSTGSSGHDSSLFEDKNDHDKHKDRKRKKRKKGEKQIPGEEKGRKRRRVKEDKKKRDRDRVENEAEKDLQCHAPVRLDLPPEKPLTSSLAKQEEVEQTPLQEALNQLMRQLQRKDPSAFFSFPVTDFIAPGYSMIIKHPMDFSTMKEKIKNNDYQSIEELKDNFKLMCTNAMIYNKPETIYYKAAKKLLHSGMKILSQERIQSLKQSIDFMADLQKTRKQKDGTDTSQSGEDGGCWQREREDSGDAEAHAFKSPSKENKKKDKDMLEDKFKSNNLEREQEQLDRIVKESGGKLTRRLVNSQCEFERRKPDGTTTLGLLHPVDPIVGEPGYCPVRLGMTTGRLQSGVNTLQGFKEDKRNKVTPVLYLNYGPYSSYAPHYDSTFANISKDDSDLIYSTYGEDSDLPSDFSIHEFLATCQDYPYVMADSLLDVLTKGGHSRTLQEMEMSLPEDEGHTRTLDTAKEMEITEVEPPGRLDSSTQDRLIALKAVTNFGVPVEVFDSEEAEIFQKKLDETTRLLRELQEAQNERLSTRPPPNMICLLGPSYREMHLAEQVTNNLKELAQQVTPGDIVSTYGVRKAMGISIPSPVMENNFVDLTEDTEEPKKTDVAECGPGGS
# protocol: Binding affinity to human BRD7 by isothermal titration calorimetry
readoutKind: Kd (nM)
The figure you give is taken to be in nM; do not add the unit.

Request: # lookup: Kd of `CC(=O)c1cc(-c2cccc3nccn23)c2cc(N3CCOCC3)ccn12`
Result: 368

----------
# ΔTm values compiled below
# experimentalSystem: Peregrin (Homo sapiens)
# protocol: Binding affinity to human BRPF1B assessed as change in melting temperature at 10 uM by differential scanning fluorimetry
The figure you give is taken to be in °C; do not add the unit.

Answered examples (5):
INSERT INTO results (compoundsmiles, readoutkind, assayvalue) VALUES
  ('CC(=O)c1cc(-c2ncc(C)cc2F)c2cc(N3CCOCC3)ccn12', 'ΔTm', 0.48),
  ('CC(=O)c1cc(-c2ccccn2)c2cc(N3CCOCC3)ccn12', 'ΔTm', 1.3),
  ('O=C(c1cc(-c2cccc3nccn23)c2cc(N3CCOCC3)ccn12)C(F)(F)F', 'ΔTm', 0.2),
  ('CC(=O)c1cc(-c2nc3ccccc3s2)c2cc(N3CCOCC3)ccn12', 'ΔTm', 0.04),
  ('CC(C)C(=O)c1cc(-c2cccc3nccn23)c2cc(N3CCN(C)CC3)ccn12', 'ΔTm', 0.71);

Request: # lookup: ΔTm of `CCCOc1ccn2c(C(C)=O)cc(-c3cccc(Cl)n3)c2c1`
Result: 0.18

Request: Would you mind doing `CC(=O)c1cc(-c2cccc(C)n2)c2cc(N3CCOCC3)ccn12` as well?
Result: 0.65

Request: Would you mind doing `CCCOc1ccn2c(C(C)=O)cc(-c3ccccn3)c2c1` as well?
Result: 0.32

Request: Would you mind doing `CC(=O)c1cc(-c2ncccn2)c2cc(N3CCOCC3)ccn12` as well?
Result: 0.29

Request: Would you mind doing `CCCOc1ccn2c(C(C)=O)cc(-c3cc(C(=O)OC)ccn3)c2c1` as well?
Result: 0.09
